The reported numbers originate from ChEMBL document CHEMBL1156462.

- System: Tobacco mosaic virus
- TEST_PROTOCOL: Inhibition of TMV U1 multiplication in tobacco BY2 protoplast at 10 nM assessed as inhibition of local lesions on Chenopodium quinoa leaves by local lesion assay after 3 days postinfection
- Assay type: functional
- CONDITION_DESCRIPTION: U1, 72 h
// reported inhibition at 0.01 µM for each item listed
OBSERVED_PROPERTY: inhibition at 0.01 µM (%)

CO[C@@H]1C[C@@H](O[C@H]2CC[C@@]3(C)C(=CC[C@H]4C(=O)OC5CO[C@]6(C)OC=C(CC[C@@H]43)[C@H]56)C2)O[C@H](C)[C@H]1O[C@H]1C[C@H](O)[C@H](O[C@H]2C[C@@H](OC)[C@@H](O[C@@H]3O[C@H](CO)[C@@H](O[C@@H]4O[C@H](CO)[C@@H](O)[C@H](O)[C@H]4O)[C@H](O)[C@H]3O)[C@H](C)O2)[C@@H](C)O1 (stereo not given in full) [PANICULATUMOSIDE E] : 16
CO[C@@H]1C[C@H](O[C@H]2CC[C@@]3(C)C(=CC[C@H]4C(=O)OC5CO[C@]6(C)OC=C(CC[C@@H]43)[C@H]56)C2)O[C@H](C)[C@H]1O[C@H]1C[C@H](O)[C@H](O[C@@H]2C[C@@H](OC)[C@H](O[C@@H]3O[C@H](CO)[C@@H](O[C@@H]4O[C@H](CO)[C@@H](O)[C@H](O)[C@H]4O)[C@H](O)[C@H]3O)[C@@H](C)O2)[C@@H](C)O1 (stereo not given in full) [PANICULATUMOSIDE C] : 19
C[C@]12OC=C3CC[C@H]4[C@@H](CC=C5C[C@@H](O)CC[C@@]54C)C(=O)OC(CO1)[C@@H]32 (stereo not given in full) [GLAUCOGENIN C] : 17
CO[C@@H]1C[C@H](O[C@H]2CC[C@@]3(C)C(=CC[C@H]4C(=O)OC5CO[C@]6(C)OC=C(CC[C@@H]43)[C@H]56)C2)O[C@H](C)[C@H]1O (stereo not given in full) [CYNATRATOSIDE A] : 20
CO[C@H]1C[C@H](O[C@H]2[C@@H](OC)C[C@H](O[C@@H]3[C@@H](C)O[C@H](O[C@H]4CC[C@@]5(C)C(=CC[C@H]6C(=O)OC7CO[C@]8(C)OC=C(CC[C@@H]65)[C@H]78)C4)C[C@H]3OC)O[C@@H]2C)O[C@@H](C)[C@@H]1O[C@@H]1O[C@H](CO)[C@@H](O[C@@H]2O[C@H](CO)[C@@H](O)[C@H](O)[C@H]2O)[C@H](O)[C@H]1O (stereo not given in full) [PANICULATUMOSIDE D] : 6

* * *

- TEST_PROTOCOL: Cytotoxicity against hamster BHK21 cells
- Assay type: cell-based, Mesocricetus auratus, BHK-21
OBSERVED_PROPERTY: CC50

CO[C@@H]1C[C@H](O[C@H]2CC[C@@]3(C)C(=CC[C@H]4C(=O)OC5CO[C@]6(C)OC=C(CC[C@@H]43)[C@H]56)C2)O[C@H](C)[C@H]1O[C@H]1C[C@H](O)[C@H](O[C@@H]2C[C@@H](OC)[C@H](O[C@@H]3O[C@H](CO)[C@@H](O[C@@H]4O[C@H](CO)[C@@H](O)[C@H](O)[C@H]4O)[C@H](O)[C@H]3O)[C@@H](C)O2)[C@@H](C)O1 (stereo partly specified) [PANICULATUMOSIDE C] : 16.5 µM
